Each recorded value in this set is attributed to PubChem BioAssay (NCI).

test system: A498 renal; assay: NCI tumour cell line growth inhibition, 48 h
observed_property: TGI

Some compounds with recorded TGI:
{"compound": "CSc1cc(Cl)c(C)cc1S(=O)(=O)NC(=O)NNc1ccc(Cl)cc1", "TGI": "> 100 µM"}
{"compound": "CC1(C)[C@@H]2CC[C@@]1(C)[C@@H]1O[C@@H](O[C@@H](CN)c3cc(Cl)c(OCc4ccccc4)c(OCc4ccccc4)c3)C[C@H]21", "TGI": "0.344 µM"}
{"compound": "CN(C)CCCN1C(=S)N(CCCN(C)C)c2c3cc(O)ccc3nc3c([N+](=O)[O-])ccc1c23", "TGI": "5.47 µM"}
{"compound": "O=C(c1ccc2ccccc2c1)c1c(C(F)(F)F)n([O-])c2ccc(Cl)cc2[n+]1=O", "TGI": "3.11 µM"}
{"compound": "COCCOCCOCc1n(Cc2ccc3ccccc3n2)c2ccccc2[n+]1Cc1ccc2ccccc2c1", "TGI": "2.83 µM"}
{"compound": "COc1ccc(Nc2nc3ccccc3nc2-c2cccs2)cc1", "TGI": "> 100 µM"}
{"compound": "Cc1ccccc1C(O)(c1nccn1C)c1nccn1C", "TGI": "> 100 µM"}
{"compound": "CCCCCCCCCCCCCC(=O)OCC1OC(=O)CC1O (stereo unspecified)", "TGI": "> 100 µM"}

// switching to the query compound
What reported TGI corresponds to C=CCn1c(=O)ccn(COCCO)c1=O on A498 renal? > 100 µM

====

Overview of recorded TGI for various compounds
test system: SN12C renal; assay: NCI tumour cell line growth inhibition, 48 h

Field request: TGI | item: CC(C)COP(=O)(OCC(C)C)C(NS(=O)(=O)c1ccccc1)(C(F)(F)F)C(F)(F)F 18.8 µM

Query (compound): CCCCCCCCCCCCCC(=O)OCC1OC(=O)CC1O (stereo unspecified) ; field requested: TGI > 100 µM

What value of TGI has been recorded for this entry: CC12CC(=O)C3C(C(=O)C1)C32C (stereo unspecified) > 100 µM

Item under review: CC(=O)N[C@H](C(=O)N[C@@H](CCCNC(=N)N)C(=O)N[C@@H](CCCCN)C(=O)N[C@@H](CCCNC(=N)N)C(=O)N[C@]1(C)CCCCCC/C=C\CCC[C@@](C)(C(=O)N[C@@H](CCCNC(=N)N)C(=O)N[C@@H](CCC(=O)O)C(=O)N[C@@H](CC(C)C)C(=O)N[C@H](C(=O)N[C@@H](CCC(=O)O)C(N)=O)C(C)C)NC(=O)[C@H](CCC(N)=O)NC(=O)[C@H](CC(C)C)NC(=O)[C@H](CC(C)C)NC(=O)[C@H](CCCNC(=N)N)NC(=O)[C@H](CCCNC(=N)N)NC(=O)[C@H](CC(C)C)NC1=O)C(C)C . Reported TGI? > 50 µM

So what does the record say about TGI for COc1cc([N+](=O)[O-])c(OC)cc1-c1nc2sc(Cl)cn2c1/C=N/Nc1ccccn1 ? 36.8 µM

TGI lookup needed for CC(C)c1ccc(C(=O)Nc2sc3c(CN(C)C)c(O)ccc3c2C(N)=O)cc1 , thanks. > 100 µM

====

system: OVCAR-3 ovarian; assay: NCI tumour cell line growth inhibition, 48 h
observed_property: TGI (µM)
Return type: number; implicit unit µM.

{"compound": "c1ccc(Cn2cnc3ccc(-c4nc(-c5ccc6c(c5)ncn6C5CCCCC5)cn5ccnc45)cc32)cc1", "value": 5.8}

// TGI lookup, key: N#C/C(=C\c1cc(Br)c(O)c(Br)c1)c1cccnc1 44

TGI lookup needed for CO[C@]12CC(=O)C3(C(C[C@H]4CC5CC=C6C[C@@H](OC(C)=O)CC[C@]6(OC(C)=O)C5C[C@@]43C)C1)C1C[C@H]3[C@@H]4CC=C5C[C@@H](OC(C)=O)CC[C@]5(OC(C)=O)[C@H]4CC[C@]3(C)C12 (stereo not given in full) , thanks. 56.4

# lookup: TGI of Cc1ccccc1Nc1nc2c(s1)C(=O)c1ccccc1C2=O 5.31

====

system: K-562 leukemia; experiment: NCI tumour cell line growth inhibition, 48 h
observed_property: TGI

Field: example entries. Status: answers known.
{"smiles_input": "COc1c(Br)cc(Br)c(OC)c1-c1[nH]c(Br)c(Br)c1Br", "TGI": "15 µM"}
{"smiles_input": "Cc1ccc2nc3c(Cl)c(C)c(=O)cc-3sc2c1", "TGI": "> 100 µM"}

Can you look up the measured TGI of COc1ccc(/C=C2/CCc3cc4ccc(OC)cc4[o+]c32)c(O)c1 for me? 93.8 µM

I would be grateful if you could share the reported TGI for C=CC[C@]12C[C@@H](C(=O)OC)N(C(=O)OC)[C@H]1N(S(=O)(=O)c1ccccc1)c1ccccc12 . > 100 µM

If you can, please state the reported TGI value of CC(C)/C(Cl)=N\OC(=O)Nc1ccc(C#N)cc1 . 4.82 µM

Which TGI is listed for O=c1cc(N=P(c2ccccc2)(c2ccccc2)c2ccccc2)n(-c2ccccc2)c(=O)n1-c1ccccc1 ? 23.9 µM

====

test system: SF-295 CNS; test: NCI tumour cell line growth inhibition, 48 h
observed_property: TGI (µM)
# number only, unit µM dropped from output

{"compound": "Cc1c(C(=O)CSc2nc3ccccc3c(=O)n2-c2ccccc2)c(=O)n(-c2ccccc2)n1C", "target_of_assay": "SF-295 CNS", "value": 66.2}

// query TGI value for entry O=C1C[C@H](Sc2ccccc2)C2(OCCO2)[C@@H](Sc2ccccc2)C1 17.9

Name the recorded TGI for CCN(CC)CCNC(=O)c1cn2ncnc(Oc3ccc(NC(=O)Nc4ccc(Cl)c(C(F)(F)F)c4)c(F)c3)c2c1C . 3.07

For O=C(/C=C/c1ccccc1)CC(c1ccccc1)N1CCOCC1 (stereo not given) , what is its reported TGI? 10.5

====

Listing of entries alongside the reported TGI.
test system: SK-OV-3 ovarian; experiment: NCI tumour cell line growth inhibition, 48 h
Answer with a number only, understood to be in µM.

Below, 3 molecules whose answers are already recorded.
{"molecule": "NC(=O)c1cccc(Nc2nccc(Nc3cccc(F)c3)n2)c1", "target_of_assay": "SK-OV-3 ovarian", "TGI, µM": 17.2}
{"molecule": "O=C1C[C@H](Sc2ccccc2)C2(OCCO2)[C@@H](Sc2ccccc2)C1", "target_of_assay": "SK-OV-3 ovarian", "TGI, µM": 24.7}
{"molecule": "O=c1ccc2cc3ccc4cccc5ccc(c2o1)c3c45", "target_of_assay": "SK-OV-3 ovarian", "TGI, µM": 32.6}

--- query ---
Observed TGI on SK-OV-3 ovarian for CC1CC[C@@]2(OC1)OC1C[C@H]3[C@@H]4CC[C@H]5CC(OC6OC(CO)C(OC7OC(CO)C(O)C(O)C7OC7OC(CO)C(O)C(O)C7O)C(O)C6O)CCC5(C)[C@H]4CCC3(C)C1[C@@H]2C (some centres undefined) , please. 6.04

====

system: MALME-3M melanoma; test: NCI tumour cell line growth inhibition, 48 h; in the data active = GI50 below about 0.43 µM; inactive = the rest
The reply should be one of these categories: active, inactive

Worked cases, answers included:
{"molecule": "C[C@H]1[C@H](C)CC[C@]2(C(=O)NCCNCCN)CC[C@]3(C)C(=CC[C@@H]4[C@@]5(C)CCC(=O)C(C)(C)[C@@H]5CC[C@]43C)[C@H]12", "target_of_assay": "MALME-3M melanoma", "category": "inactive"}
{"molecule": "CC(=O)N[C@H](C(=O)N[C@@H](CCCNC(=N)N)C(=O)N[C@@H](CCCCN)C(=O)N[C@@H](CCCNC(=N)N)C(=O)N[C@]1(C)CCCCCC/C=C\\CCC[C@@](C)(C(=O)N[C@@H](CCCNC(=N)N)C(=O)N[C@@H](CCC(=O)O)C(=O)N[C@@H](CC(C)C)C(=O)N[C@H](C(=O)N[C@@H](CCC(=O)O)C(N)=O)C(C)C)NC(=O)[C@H](CCC(N)=O)NC(=O)[C@H](CC(C)C)NC(=O)[C@H](CC(C)C)NC(=O)[C@H](CCCNC(=N)N)NC(=O)[C@H](CCCNC(=N)N)NC(=O)[C@H](CC(C)C)NC1=O)C(C)C", "target_of_assay": "MALME-3M melanoma", "category": "inactive"}
{"molecule": "COCCOCCOCc1n(Cc2ccc3ccccc3n2)c2ccccc2[n+]1Cc1ccc2ccccc2c1", "target_of_assay": "MALME-3M melanoma", "category": "active"}
{"molecule": "CC(=O)[O-].CC(=O)[O-].CC(=O)[O-].CC(=O)[O-].[Mo+2].[Mo+2]", "target_of_assay": "MALME-3M melanoma", "category": "inactive"}
{"molecule": "O=C(O)CCC(NC(=S)S)C(=O)O.[Na+].[Zn+2] (stereo unspecified)", "target_of_assay": "MALME-3M melanoma", "category": "inactive"}

Assay result, entry COc1ccc2cc(-c3ccc(-c4ccc(C(=N)N)s4)s3)ccc2c1 — outcome? inactive
